Reported IC50 values, Human DGAT1 (Homo sapiens, UniProt O75907).
Dear colleague, please send the value followed by its unit.

Previously resolved entries follow.
| compound | IC50 |
| --- | --- |
| CC1(CC(=O)O)CCc2cc(-c3ccc(NC(=O)Nc4cccc(Cl)c4)c(F)c3)ccc2C1=O (stereo not drawn) | 0.012 µM |
| CCC1(CC(=O)O)CCc2cc(-c3ccc(NC(=O)Nc4cccc(Cl)c4)cc3Cl)ccc2C1=O (stereo not drawn) | 0.0108 µM |

Please report IC50 for the following compound: COC1(CC(=O)O)CCc2cc(-c3ccc(NC(=O)Nc4cccc(C(F)(F)F)c4)cc3)ccc2C1=O (single isomer, unassigned)
0.0069 µM
